Answer each item with its documented log10(MIC).
# Test system: Proteus vulg. 1017
# PROTOCOL: MIC, liquid medium test tube series dilution test
# Type: cell-based, Proteus vulgaris
# PARTICULARS: Proteus vulg. 1017, 24 hours, 37°C
For clarity, the numbers are log10 values of MIC expressed in units/ml.

Provide log10(MIC), tested on Proteus vulg. 1017, for CCCCOC(=O)N(C)C(=O)N[C@@H](C(=O)N[C@@H]1C(=O)N2[C@@H]1SC(C)(C)[C@@H]2C(=O)O)c1ccccc1 [Example 12] .
2.00

Provide log10(MIC), tested on Proteus vulg. 1017, for `CC1(C)S[C@@H]2[C@H](NC(=O)[C@H](NC(=O)N(CCCl)C(=O)CCC(Cl)(Cl)Cl)c3ccccc3)C(=O)N2[C@H]1C(=O)O` .
1.70

Provide log10(MIC), tested on Proteus vulg. 1017, for `CN(C(=O)CCC(Cl)(Cl)Cl)C(=O)N[C@@H](C(=O)N[C@@H]1C(=O)N2[C@@H]1SC(C)(C)[C@@H]2C(=O)O)c1ccccc1` .
0.49

Provide log10(MIC), tested on Proteus vulg. 1017, for CC1(C)S[C@@H]2[C@H](NC(=O)[C@H](NC(=O)N3CCNC3=O)c3ccccc3)C(=O)N2[C@H]1C(=O)O [Example 51] .
1.40

Provide log10(MIC), tested on Proteus vulg. 1017, for `CN(C(=O)N[C@@H](C(=O)N[C@@H]1C(=O)N2[C@@H]1SC(C)(C)[C@@H]2C(=O)O)c1ccccc1)C(=O)N1CCCC1` .
1.70

Provide log10(MIC), tested on Proteus vulg. 1017, for `CC(=O)N(C(=O)N[C@@H](C(=O)N[C@@H]1C(=O)N2[C@@H]1SC(C)(C)[C@@H]2C(=O)O)c1ccccc1)c1ccccc1` .
2.30

Provide log10(MIC), tested on Proteus vulg. 1017, for `CN(C(=O)N[C@@H](C(=O)N[C@@H]1C(=O)N2[C@@H]1SC(C)(C)[C@@H]2C(=O)O)c1ccccc1)C(=O)c1ccc(Cl)cc1[N+](=O)[O-]` .
0.49

Provide log10(MIC), tested on Proteus vulg. 1017, for CN(C(=O)CCCCl)C(=O)N[C@@H](C(=O)N[C@@H]1C(=O)N2[C@@H]1SC(C)(C)[C@@H]2C(=O)O)c1ccccc1 [Example 2] .
2.00

Provide log10(MIC), tested on Proteus vulg. 1017, for `CN(C(=O)N[C@@H](C(=O)N[C@@H]1C(=O)N2[C@@H]1SC(C)(C)[C@@H]2C(=O)O)c1ccccc1)C(=O)c1ccccc1` .
0.80

Provide log10(MIC), tested on Proteus vulg. 1017, for CN(C(=O)N[C@@H](C(=O)N[C@@H]1C(=O)N2[C@@H]1SC(C)(C)[C@@H]2C(=O)O)c1ccccc1)C(=O)OC1CCCCC1 [Example 29] .
1.10

Provide log10(MIC), tested on Proteus vulg. 1017, for `CN(C(=O)N[C@@H](C(=O)N[C@@H]1C(=O)N2[C@@H]1SC(C)(C)[C@@H]2C(=O)O)c1ccccc1)C(=O)c1ccc(Cl)cc1Cl` .
0.49

----------
# System: Klebsiella 63
# PROTOCOL: MIC, liquid medium test tube series dilution test
# Type: cell-based
# PARTICULARS: Klebsiella 63, 24 hours, 37°C
Answer each item with its documented MIC.
Be sure to follow the number with its unit.

Answer with the recorded MIC of `CN(C(=O)N[C@@H](C(=O)N[C@@H]1C(=O)N2[C@@H]1SC(C)(C)[C@@H]2C(=O)O)c1ccccc1)C(=O)c1c(Cl)cccc1Cl` only.
12.5 units/ml

Answer with the recorded MIC of `CN(C(=O)N[C@@H](C(=O)N[C@@H]1C(=O)N2[C@@H]1SC(C)(C)[C@@H]2C(=O)O)c1ccccc1)C(=O)N1CCCC1` only.
50 units/ml

Answer with the recorded MIC of CC(=O)N(C)C(=O)NC(C(=O)N[C@@H]1C(=O)N2[C@@H]1SC(C)(C)[C@@H]2C(=O)O)c1ccc(Cl)cc1 (stereo partly drawn) only.
100 units/ml

----------
Answer each item with its documented MIC.
# Test system: E. coli 14
# PROTOCOL: MIC, liquid medium test tube series dilution test
# Assay type: cell-based
# PARTICULARS: E. coli 14, 24 hours, 37°C
Only the number, expressed in units/ml, is required.

Answer with the recorded MIC of CN(C(=O)N[C@@H](C(=O)N[C@@H]1C(=O)N2[C@@H]1SC(C)(C)[C@@H]2C(=O)O)c1ccccc1)C(=O)c1ccccc1 [Example 59] only.
1.56

Answer with the recorded MIC of Cc1ccc(C(NC(=O)N(C)C(=O)N(C)C)C(=O)N[C@@H]2C(=O)N3[C@@H]2SC(C)(C)[C@@H]3C(=O)O)cc1 (stereo partly drawn) [Example 119] only.
25

----------
Answer each item with its documented MIC.
# System: Klebsiella 63
# PROTOCOL: MIC, liquid medium test tube series dilution test
# Type: cell-based
# PARTICULARS: Klebsiella 63, 24 hours, 37°C
Only the number, expressed in units/ml, is required.

Answer with the recorded MIC of CN(C(=O)N[C@@H](C(=O)N[C@@H]1C(=O)N2[C@@H]1SC(C)(C)[C@@H]2C(=O)O)c1ccccc1)C(=O)c1ccccc1 [Example 59] only.
50

Answer with the recorded MIC of Cc1ccc(C(=O)N(C)C(=O)N[C@@H](C(=O)N[C@@H]2C(=O)N3[C@@H]2SC(C)(C)[C@@H]3C(=O)O)c2ccccc2)cc1[N+](=O)[O-] [Example 70] only.
12.5

Answer with the recorded MIC of CN(C(=O)N[C@@H](C(=O)N[C@@H]1C(=O)N2[C@@H]1SC(C)(C)[C@@H]2C(=O)O)c1ccccc1)C(=O)C1CC=CCC1 (single isomer, unassigned) [Example 65] only.
12.5

Answer with the recorded MIC of CN(C(=O)CCCl)C(=O)N[C@@H](C(=O)N[C@@H]1C(=O)N2[C@@H]1SC(C)(C)[C@@H]2C(=O)O)c1ccccc1 [Example 64] only.
100

Answer with the recorded MIC of COC(=O)N(C)C(=O)N[C@@H](C(=O)N[C@@H]1C(=O)N2[C@@H]1SC(C)(C)[C@@H]2C(=O)O)c1ccccc1 [Example 96] only.
200

Answer with the recorded MIC of CCN(CC)C(=O)N(C)C(=O)N[C@@H](C(=O)N[C@@H]1C(=O)N2[C@@H]1SC(C)(C)[C@@H]2C(=O)O)c1ccccc1 [Example 126] only.
200

Answer with the recorded MIC of CC1(C)S[C@@H]2[C@H](NC(=O)[C@H](NC(=O)N3CCCCC3=O)c3ccccc3)C(=O)N2[C@H]1C(=O)O [Example 134] only.
200

Answer with the recorded MIC of CC1(C)S[C@@H]2[C@H](NC(=O)[C@H](NC(=O)N(CCCl)C(=O)CCC(Cl)(Cl)Cl)c3ccccc3)C(=O)N2[C@H]1C(=O)O [Example 72] only.
50

Answer with the recorded MIC of CN(C(=O)CCCCl)C(=O)N[C@@H](C(=O)N[C@@H]1C(=O)N2[C@@H]1SC(C)(C)[C@@H]2C(=O)O)c1ccccc1 [Example 88] only.
25

Answer with the recorded MIC of CC1(C)S[C@@H]2[C@H](NC(=O)[C@H](NC(=O)N3CCNC3=O)c3ccccc3)C(=O)N2[C@H]1C(=O)O [Example 53] only.
25

----------
# Tested on: Psdm. aerug. Walter
# PROTOCOL: MIC, liquid medium test tube series dilution test
# Type: cell-based, Pseudomonas aerug.
# PARTICULARS: 24 hours, 37°C
MEASUREMENT KIND: MIC (units/ml)
Only the number, expressed in units/ml, is required.

Answer with the recorded MIC of `CN(C(=O)N[C@@H](C(=O)N[C@@H]1C(=O)N2[C@@H]1SC(C)(C)[C@@H]2C(=O)O)c1ccccc1)C(=O)N1CCCCC1` only.
100

Answer with the recorded MIC of `CCN(CC)C(=O)N(C)C(=O)N[C@@H](C(=O)N[C@@H]1C(=O)N2[C@@H]1SC(C)(C)[C@@H]2C(=O)O)c1ccccc1` only.
200

Answer with the recorded MIC of CSc1ccc(C(NC(=O)N2CCNC2=O)C(=O)N[C@@H]2C(=O)N3[C@@H]2SC(C)(C)[C@@H]3C(=O)O)cc1 (stereo partly shown) [Example 55] only.
25

Answer with the recorded MIC of `CN(C(=O)CCCl)C(=O)N[C@@H](C(=O)N[C@@H]1C(=O)N2[C@@H]1SC(C)(C)[C@@H]2C(=O)O)c1ccccc1` only.
50

Answer with the recorded MIC of `CN(C(=O)CCC(F)(F)F)C(=O)N[C@@H](C(=O)N[C@@H]1C(=O)N2[C@@H]1SC(C)(C)[C@@H]2C(=O)O)c1ccccc1` only.
100

Answer with the recorded MIC of `CC(C)OC(=O)N(C)C(=O)N[C@@H](C(=O)N[C@@H]1C(=O)N2[C@@H]1SC(C)(C)[C@@H]2C(=O)O)c1ccccc1` only.
50

Answer with the recorded MIC of `CN(C(=O)N[C@@H](C(=O)N[C@@H]1C(=O)N2[C@@H]1SC(C)(C)[C@@H]2C(=O)O)c1ccccc1)C(=O)c1c(Cl)cccc1Cl` only.
6.25
